The measured values listed here are drawn from paper PMC12621043.

Molecular target: STK4 (STK4A) (Homo sapiens)
Construct: purchased in-house DSF kinase panel (SGC-style construct names; the trailing letter is the construct ID)
Sequence (Q13043 1-311): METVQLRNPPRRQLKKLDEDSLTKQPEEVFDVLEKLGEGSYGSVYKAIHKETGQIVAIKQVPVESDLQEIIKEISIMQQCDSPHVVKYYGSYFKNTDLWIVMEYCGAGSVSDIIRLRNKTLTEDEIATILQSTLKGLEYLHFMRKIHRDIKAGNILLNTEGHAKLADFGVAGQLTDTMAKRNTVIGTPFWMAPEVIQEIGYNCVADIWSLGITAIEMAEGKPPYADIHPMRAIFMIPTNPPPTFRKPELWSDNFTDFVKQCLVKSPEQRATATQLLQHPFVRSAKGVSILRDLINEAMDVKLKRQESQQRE
Assay: DSF Tm panel
Type: binding
Settings: 10 μM compound
MEASUREMENT TYPE: ΔTm at 10 µM (°C)

Some solved entries appear below for comparison.
Cc1cc(Cl)ccc1CNC(=O)Nc1ccc2cc1OCCOCCNc1ccn3ncc-2c3n1 = 7.4
Cc1ccc(F)cc1CNC(=O)Nc1ccc2cc1OCCOCCNc1ccn3ncc-2c3n1 = 3.1
COc1ccc(CNC(=O)Nc2ccc3cc2OCCOCCNc2ccn4ncc-3c4n2)cc1 = 4.1
O=C(NCc1ccc(Cl)cc1F)Nc1ccc2cc1OCCOCCNc1ccn3ncc-2c3n1 = 4.9
O=C(NCc1ccccc1C(F)(F)F)Nc1ccc2cc1OCCOCCNc1ccn3ncc-2c3n1 = 3.8

1 = CN1CCN(C(=O)Nc2ccc3cc2OCCOCCNc2ccn4ncc-3c4n2)CC1
2 = O=C(NCc1ccc(C(F)(F)F)cc1)Nc1ccc2cc1OCCOCCNc1ccn3ncc-2c3n1
Q. Hi, I'm comparing 1 with 2 and wondering which one has the bigger number for ΔTm at 10 µM. Any idea? Kindly state the label of the option you pick.
A. 2
(2: 4.3 °C, 1: 0.9 °C)

a = O=C(NCc1ccc(Cl)cc1)Nc1ccc2cc1OCCOCCNc1ccn3ncc-2c3n1
b = COc1cccc(CNC(=O)Nc2ccc3cc2OCCOCCNc2ccn4ncc-3c4n2)c1
Q. Lowest ΔTm at 10 µM? choose a or b Kindly state the label of the option you pick.
A. b
(b: 3 °C, a: 5.5 °C)
